Literature roundup of Phospholipase A2 (Homo sapiens, UniProt P04054) data, read-out IC50.
readout.kind: IC50 (µM)

A. Cc1c(C(=O)C(N)=O)c2c(OCC(=O)O)cccn2c1Cc1ccccc1-c1ccccc1
B. CCCCCCCCCCCCCCOC(COc1ccc(-c2noc(=O)[nH]2)cc1)COC(c1ccccc1)c1ccccc1 (racemic)
C. CCCCCCCCCCCCCCCCCCc1ccc(C(=O)/C=C/C(=O)O)cc1
D. CCCCCCCCCCCCCc1ccc(C(=O)/C=C/C(=O)O)cc1
Query: // TODO: order the 4 compounds above by IC50, descending Thanks in advance for listing the labels in the requested order.
Reply: B, D, A, C
(B: 18 µM, D: 7.1 µM, A: 0.1 µM, C: 0.049 µM)

----------
This section presents IC50 values reported for Phospholipase A2 (Homo sapiens, UniProt P04054) in the literature.
readout.kind: IC50 (µM)

Some solved cases for reference:
CCCCCCCc1ccc(C(=O)/C=C/C(=O)O)cc1 ... 5.9
CC(C)CCC[C@@H](C)[C@H]1CC[C@@H]2[C@]1(C)CC[C@H]1[C@@]23O[C@@H]3[C@H](O)[C@@]2(O)C[C@@H](O)CC[C@]12C ... 13.8
CCCCCCCCCCCCCCCCCCOC(COCc1ccc(C#N)cc1)COc1ccc(Cc2noc(=O)[nH]2)cc1 (racemic) ... 8.7

A. CCCCCCCCCCCCCCOC(COCc1ccc(C#N)cc1)COc1ccc(Cc2nc(=O)o[nH]2)cc1 (racemic)
B. CCCCCCCCCCCCCCOC(COCCCCc1ccccc1)COc1ccc(-c2noc(=O)[nH]2)cc1 (racemic)
C. CCCCCc1ccc(/C=C/C(=O)Nc2ccccc2C(=O)O)cc1
D. CCCCCCCCCCCCc1ccc(C(=O)/C=C/C(=O)O)cc1
E. CCCCCCCCCCCc1ccc(C(=O)/C=C/C(=O)O)cc1
Query: Rank items: key IC50, increasing. Give your ranking as a list of the labels in the requested order.
Reply: D, E, A, B, C
(D: 1.3 µM, E: 3.5 µM, A: 7.6 µM, B: 15 µM, C: 22 µM)
